system.name: human KDR on cells (human, UniProt P35968 20-1356)
Sequence (P35968 20-1356): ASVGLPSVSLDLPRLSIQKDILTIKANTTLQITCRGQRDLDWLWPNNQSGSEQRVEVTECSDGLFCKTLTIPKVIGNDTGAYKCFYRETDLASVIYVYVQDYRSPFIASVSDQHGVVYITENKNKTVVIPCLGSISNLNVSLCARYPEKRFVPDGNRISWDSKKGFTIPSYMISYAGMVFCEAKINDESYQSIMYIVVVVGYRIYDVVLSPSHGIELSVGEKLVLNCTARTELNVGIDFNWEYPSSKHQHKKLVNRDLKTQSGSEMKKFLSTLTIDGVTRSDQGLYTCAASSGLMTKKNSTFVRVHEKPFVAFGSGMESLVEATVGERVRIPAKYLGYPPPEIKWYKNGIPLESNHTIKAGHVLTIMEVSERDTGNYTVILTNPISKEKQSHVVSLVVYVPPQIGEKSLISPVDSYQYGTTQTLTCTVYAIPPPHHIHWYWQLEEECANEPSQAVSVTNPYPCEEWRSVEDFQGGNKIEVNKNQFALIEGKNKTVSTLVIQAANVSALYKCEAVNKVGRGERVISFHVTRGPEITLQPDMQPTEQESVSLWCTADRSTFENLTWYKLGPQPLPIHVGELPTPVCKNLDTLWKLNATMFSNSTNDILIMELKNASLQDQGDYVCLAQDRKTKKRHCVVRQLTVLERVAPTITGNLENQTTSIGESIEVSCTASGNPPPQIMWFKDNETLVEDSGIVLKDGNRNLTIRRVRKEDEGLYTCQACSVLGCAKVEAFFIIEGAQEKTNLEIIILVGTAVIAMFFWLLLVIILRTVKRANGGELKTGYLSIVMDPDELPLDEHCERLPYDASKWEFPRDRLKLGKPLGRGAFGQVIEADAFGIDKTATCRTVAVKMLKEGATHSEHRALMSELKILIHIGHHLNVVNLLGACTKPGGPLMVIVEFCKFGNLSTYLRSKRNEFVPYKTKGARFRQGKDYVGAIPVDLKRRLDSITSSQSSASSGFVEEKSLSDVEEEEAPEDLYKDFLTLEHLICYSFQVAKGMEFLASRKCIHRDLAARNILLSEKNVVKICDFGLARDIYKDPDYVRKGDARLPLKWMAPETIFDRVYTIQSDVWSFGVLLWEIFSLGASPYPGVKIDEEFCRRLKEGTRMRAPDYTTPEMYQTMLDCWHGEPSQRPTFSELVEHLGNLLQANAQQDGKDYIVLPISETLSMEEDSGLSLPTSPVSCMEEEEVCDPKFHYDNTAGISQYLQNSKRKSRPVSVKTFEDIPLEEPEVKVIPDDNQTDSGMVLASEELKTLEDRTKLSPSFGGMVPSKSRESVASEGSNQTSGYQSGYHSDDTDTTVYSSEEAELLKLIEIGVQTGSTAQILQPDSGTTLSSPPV
test.summary: cell-based or functional assay
# % Inhibition (Average) of VEGF-C-mediated KDR activity, antibody 1 nM per entry
Write the answer as a number in %, unit excluded.

stdin: I'd like to know its % Inhibition (Average) of VEGF-C-mediated KDR activity, antibody 1 nM. The binder in question is 33B1 (antibody, V domains shown) VH: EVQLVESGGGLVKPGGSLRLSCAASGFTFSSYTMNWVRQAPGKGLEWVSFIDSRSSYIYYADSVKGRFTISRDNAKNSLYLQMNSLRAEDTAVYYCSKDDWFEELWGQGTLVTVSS VL: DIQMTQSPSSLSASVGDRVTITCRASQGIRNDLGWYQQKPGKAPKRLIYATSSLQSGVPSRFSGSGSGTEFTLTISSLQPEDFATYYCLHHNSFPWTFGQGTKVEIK
stdout: 49

stdin: Can you check 32F4 (antibody, V domains shown) VH: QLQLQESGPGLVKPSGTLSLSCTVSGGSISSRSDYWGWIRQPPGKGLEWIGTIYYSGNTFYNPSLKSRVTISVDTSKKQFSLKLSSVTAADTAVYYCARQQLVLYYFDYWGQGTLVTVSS VL: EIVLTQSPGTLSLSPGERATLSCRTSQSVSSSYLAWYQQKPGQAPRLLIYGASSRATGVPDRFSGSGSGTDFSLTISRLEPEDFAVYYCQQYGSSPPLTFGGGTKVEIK next?
stdout: 43

stdin: Try this binder too: 27A3 (antibody, V domains shown) VH: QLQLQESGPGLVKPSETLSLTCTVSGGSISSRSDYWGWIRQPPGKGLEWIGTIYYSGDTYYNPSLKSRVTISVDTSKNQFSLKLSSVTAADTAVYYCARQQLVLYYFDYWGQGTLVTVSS VL: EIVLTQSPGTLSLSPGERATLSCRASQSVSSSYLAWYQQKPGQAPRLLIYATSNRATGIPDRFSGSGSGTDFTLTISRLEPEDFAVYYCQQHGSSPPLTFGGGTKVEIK
stdout: 39

stdin: Request: 22B8 (antibody, V domains shown) VH: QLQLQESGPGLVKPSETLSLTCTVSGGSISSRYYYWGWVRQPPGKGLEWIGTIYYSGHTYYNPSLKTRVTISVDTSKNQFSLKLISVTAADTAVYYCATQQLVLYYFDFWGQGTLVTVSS VL: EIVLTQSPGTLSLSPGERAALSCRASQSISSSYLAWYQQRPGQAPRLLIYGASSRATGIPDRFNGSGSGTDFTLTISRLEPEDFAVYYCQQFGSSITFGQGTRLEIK
stdout: 27

stdin: What do you get for 31E11 (antibody, V domains shown) VH: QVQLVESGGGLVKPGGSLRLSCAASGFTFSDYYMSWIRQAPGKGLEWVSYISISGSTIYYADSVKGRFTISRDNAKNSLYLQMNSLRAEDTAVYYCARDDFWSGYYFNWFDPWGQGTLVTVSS VL: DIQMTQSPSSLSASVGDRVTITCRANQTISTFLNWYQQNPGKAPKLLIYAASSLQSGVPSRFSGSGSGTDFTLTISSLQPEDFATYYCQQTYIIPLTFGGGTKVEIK ?
stdout: 40

stdin: # iterate: 33C3 (antibody, V domains shown, Purified fully human monoclonal antibody from XenoMouse hybridoma (IgG2 or IgG4 strains); also called MAb 33C3) VH: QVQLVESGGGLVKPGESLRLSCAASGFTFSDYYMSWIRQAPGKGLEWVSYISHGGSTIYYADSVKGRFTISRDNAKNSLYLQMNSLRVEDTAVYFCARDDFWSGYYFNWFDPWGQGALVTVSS VL: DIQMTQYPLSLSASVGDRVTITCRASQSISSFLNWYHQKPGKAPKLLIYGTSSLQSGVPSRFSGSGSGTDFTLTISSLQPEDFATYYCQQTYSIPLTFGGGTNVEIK
stdout: 66
